Reference source for all entries: patent US20140357633A1

Notes on pIC50 obtained with BCL-2 (binding to BAK peptide) (Homo sapiens).
Sequence (P10415 whole entry): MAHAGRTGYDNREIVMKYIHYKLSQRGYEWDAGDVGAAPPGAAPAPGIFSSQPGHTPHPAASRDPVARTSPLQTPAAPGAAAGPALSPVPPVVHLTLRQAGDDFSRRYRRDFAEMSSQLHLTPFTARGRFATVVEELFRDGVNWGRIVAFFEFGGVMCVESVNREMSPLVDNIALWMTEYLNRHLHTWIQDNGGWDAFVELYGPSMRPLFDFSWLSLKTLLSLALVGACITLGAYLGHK
pIC50: −log10 of the molar value.

Qu. What is its pIC50 for BCL-2 (binding to BAK peptide) (Homo sapiens)? Entry: CCCCN(CCCC)C(=O)c1cc(C)n(-c2ccc(NC(=O)CSc3cc(C)c(Cl)cc3Cl)cc2C(=O)N2Cc3ccccc3C[C@H]2CO)n1
Ans. 7.11 to 7.15

Qu. What is its pIC50 for BCL-2 (binding to BAK peptide) (Homo sapiens)? Entry: CCCCN(CCCC)C(=O)c1cc(C)n(-c2ccc(NC(=O)OC)cc2C(=O)N2Cc3ccccc3C[C@H]2CO)n1
Ans. 6.24 to 6.25

Qu. What is its pIC50 for BCL-2 (binding to BAK peptide) (Homo sapiens)? Entry: CCCCN(CCCC)C(=O)c1cc(C)n(-c2ccc(NC(=O)c3cnn4cccnc34)cc2C(=O)N2Cc3ccccc3C[C@H]2CO)n1
Ans. 6.28 to 6.30

Qu. What is its pIC50 for BCL-2 (binding to BAK peptide) (Homo sapiens)? Entry: CCCCN(CCCC)C(=O)c1cc(C)n(-c2ccc(NC(=O)c3cc4ccccc4cn3)cc2C(=O)N2Cc3ccccc3C[C@H]2CO)n1
Ans. 6.55 to 6.60

Qu. What is its pIC50 for BCL-2 (binding to BAK peptide) (Homo sapiens)? Entry: CCCCN(CCCC)C(=O)c1cc(C)n(-c2ccc(NC(=O)c3csc(-c4cccc(Cl)c4Cl)n3)cc2C(=O)N2Cc3ccccc3C[C@H]2CO)n1
Ans. 5.87 to 5.90

Qu. What is its pIC50 for BCL-2 (binding to BAK peptide) (Homo sapiens)? Entry: CCCCN(CCCC)C(=O)c1cc(C)n(-c2ccc(NC(=O)C(C)C)cc2C(=O)N2Cc3ccccc3C[C@H]2CO)n1
Ans. 6.31 to 6.32

Qu. What is its pIC50 for BCL-2 (binding to BAK peptide) (Homo sapiens)? Entry: CCCCN(CCCC)C(=O)c1cc(C)n(-c2ccc(NC(=O)CCc3c[nH]c4c(Cl)cccc34)cc2C(=O)N2Cc3ccccc3C[C@H]2CO)n1
Ans. 6.63 to 6.67

Qu. What is its pIC50 for BCL-2 (binding to BAK peptide) (Homo sapiens)? Entry: CCCCN(CCCC)C(=O)c1cc(C)n(-c2ccc(NC(=O)Cc3cccc4ccccc34)cc2C(=O)N2Cc3ccccc3C[C@H]2CO)n1
Ans. 7.28 to 7.35

Qu. What is its pIC50 for BCL-2 (binding to BAK peptide) (Homo sapiens)? Entry: CCCCN(CCCC)C(=O)c1cc(C)n(-c2ccc(NC(=O)c3cc(SC)ccc3Cl)cc2C(=O)N2Cc3ccccc3C[C@H]2CO)n1
Ans. 6.64 to 6.65

Qu. What is its pIC50 for BCL-2 (binding to BAK peptide) (Homo sapiens)? Entry: CCCCN(CCCC)C(=O)c1cc(C)n(-c2ccc(NC(=O)c3cc(OC)cc([N+](=O)[O-])c3OC)cc2C(=O)N2Cc3ccccc3C[C@H]2CO)n1
Ans. 6.61

Qu. What is its pIC50 for BCL-2 (binding to BAK peptide) (Homo sapiens)? Entry: CCCCN(CCCC)C(=O)c1cc(C)n(-c2ccc(NC(=O)Cc3ccc(OC)c(C(F)(F)F)c3)cc2C(=O)N2Cc3ccccc3C[C@H]2CO)n1
Ans. 7.08 to 7.13

Qu. What is its pIC50 for BCL-2 (binding to BAK peptide) (Homo sapiens)? Entry: CCCCN(CCCC)C(=O)c1cc(C)n(-c2ccc(NC(=O)c3cc(=O)c4cc(C)ccc4o3)cc2C(=O)N2Cc3ccccc3C[C@H]2CO)n1
Ans. 6.39 to 6.40
